target: JEA1 (derivative of Pseudomonas fluorescens KARI) (Pseudomonas fluorescens); experiment: Inhibition of purified KARI by DHMB, spectrophotometric NADPH oxidation assay; settings: competitive vs. acetolactate, 30° C., pH 6.8, NADPH 0.2 mM, read-out: KI Values for KARI Inhibition by DHMB Isomers
Sequence (Q4K608 whole entry): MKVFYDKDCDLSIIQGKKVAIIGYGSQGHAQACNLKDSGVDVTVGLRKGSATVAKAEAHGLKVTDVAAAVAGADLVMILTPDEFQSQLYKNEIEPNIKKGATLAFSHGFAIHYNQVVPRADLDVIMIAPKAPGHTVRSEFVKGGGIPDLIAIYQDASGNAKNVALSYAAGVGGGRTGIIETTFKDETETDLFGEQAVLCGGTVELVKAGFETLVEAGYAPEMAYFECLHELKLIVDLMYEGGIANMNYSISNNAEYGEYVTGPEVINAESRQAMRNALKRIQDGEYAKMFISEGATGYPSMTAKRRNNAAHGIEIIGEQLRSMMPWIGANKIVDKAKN
property.measured: Ki (µM)
// units = µM; emit number, no label

Just so you know, measured Ki for C[C@H](O)[C@](C)(O)C(=O)O [Fast DHMB, 2,3-dihydroxy-2-methyl butyrate] came out at 230

What the record says about C[C@@H](O)[C@](C)(O)C(=O)O [Slow DHMB, 2,3-dihydroxy-2-methyl butyrate] : Ki is 230

====

Can you tell me Ki for the items I'm about to list?
Reply with the number, then its unit.

Reading of Ki for C[C@@H](O)[C@](C)(O)C(=O)O [Slow DHMB, 2,3-dihydroxy-2-methyl butyrate] with UniProt:Q8DRT7: 5 mM

Case C[C@H](O)[C@](C)(O)C(=O)O [Fast DHMB, 2,3-dihydroxy-2-methyl butyrate] , UniProt:Q8DRT7, Ki recorded as 7 mM
